System: IGROV1 ovarian
Assay: NCI-60 one-dose screen, 48 h (100 = growth as untreated, 0 = no growth, -100 = all killed)
Details: 10 µM unless noted
The panel holds about 83,000 compounds, 20% with a hit somewhere; the sample as a whole holds those more often.
Measured growth values are reported for all entries that follow.

compound | unit.text | growth
IP(CCCSc1n(Cc2ccc3ccccc3c2)c(-c2ccccc2)c(-c2ccccc2)[n+]1Cc1ccc2ccccc2c1)(c1ccccc1)(c1ccccc1)c1ccccc1 | % | 23.9
CC(=O)Oc1ccc(CCN2C(=O)CSC2=S)cc1 | % | 103
Oc1ccc(CSc2nnc(-c3ccccc3)o2)c2cccnc12 | % | 18.5
COc1cc(/C=N/n2cnc3oc(-c4ccccc4)cc3c2=N)cc(CN2CCN(C)CC2)c1O | % | 61.7
COc1cnc2c(c1)C(=O)c1c-2n(CCCNCC2CC2)c(=O)c2cc(F)ccc12 | % | 10.3
CC(=O)Nc1ccc(C)c(Nc2cc(-c3ccc(-n4cccn4)cc3)[nH]n2)c1 | % | 47.6
COc1ccc(-c2cc(-c3cccc4ccccc34)n3c(n2)nc2ccccc23)cc1OC | % | 52.3
COc1cc(CNC(=O)Cc2ccccc2[N+](=O)[O-])ccc1OCC(=O)NO | % | 108
C=CCn1c(SCC(=O)c2ccc(OC)cc2)nnc1-c1ccc(OC)cc1 | % | 103
CN1CCN(c2ccc(NC(=O)Nc3ccc4c(ccn4-c4cccc(C(N)=O)n4)c3)cc2C(F)(F)F)CC1 | % | 80.1
C=CCn1c(SCC(=O)Nc2cccc(C(=O)/C=C/c3cc(OC)c(OC)c(OC)c3)c2)nc2ccccc2c1=O | % | 49.3
Cc1nn(-c2ccccc2)cc1/C=N/Nc1nc(Nc2ccccc2)nc(Nc2ccc(S(N)(=O)=O)cc2)n1 | % | 13.1
COc1ccc2c(c1)c(-c1nnc(N)nc1-c1cn(C)c3ccccc13)cn2C | % | 95.1
C[C@H]1[C@H](C)CC[C@]2(COC(=O)c3cccnc3)CC[C@]3(C)C(=CC[C@@H]4[C@@]5(C)CCCNC(C)(C)[C@@H]5CC[C@]43C)[C@H]12 | % | 65
COc1ccc(-c2nc(SCC(C)C)nc(N/N=C\c3cccc([N+](=O)[O-])c3)c2C#N)cc1 | % | 31.4
CCN1C(=O)N(CC)C2SC(N/N=C/c3cccs3)=NC21 (stereo not drawn) | % | 23.7
CCCCCCNC(=O)Oc1ccc(/C(=C(/C)c2ccc(Cl)cc2)c2ccc(OCCN3CCCC3)cc2)cc1 | % | 32.6
Cn1cc2c(c1)-c1c(sc3nc(-c4ccc(NC(=O)Nc5cc(C(C)(C)C)on5)cc4)cn13)CC2 | % | 66.7

----------
Test system: NCI-H522 lung
Test: NCI-60 one-dose screen, 48 h (100 = growth as untreated, 0 = no growth, -100 = all killed)
Settings: 10 µM unless noted
The panel holds about 83,000 compounds, 20% with a hit somewhere; the sample as a whole holds those more often.
Measured growth values are reported for all entries that follow.

compound | unit.text | growth
O=C1[C@@H]2Cc3c([nH]c4ccccc34)[C@H](c3c(Cl)cccc3Cl)N2C(=O)CN1C1CCN(Cc2c(F)cccc2F)CC1 | % | 93
NS(=O)(=O)c1ccc(-n2cc(CC=O)nn2)cc1 | % | 94.5
O=C1Nc2ccc(Cl)cc2/C1=C/c1ccc(OCc2ccc(Br)cc2F)cc1 | % | 100
CC(C)c1nn(-c2ccccc2)c(N2CCCCC2)c1/C=N/NC(N)=S | % | 86.1
CCOC(=O)C1=C(C)Nc2nc3ccccc3n2C1c1ccccc1 (centres undefined) | % | 93.3
COc1ccc(/C=C/C(=O)c2nnn(-c3ccc(Br)cc3)c2C)cc1OC | % | 67.7
O=C1c2c(O)cc(O)cc2O[C@@H](c2ccc(O)cc2)[C@@H]1c1c(O)cc(O)c2c(=O)cc(-c3ccc(O)c(O)c3)oc12 | % | 97.4
CCOC(=O)/C=c1\sc2n(c1=O)C1C(NN=2)N(CC)C(=O)N1CC (centres undefined) | % | 33.3
C/C(=N\NC(=O)CSc1nc2sc3c(c2c(=O)n1-c1ccccc1)CCC(C)C3)c1ccc(Cl)cc1 (centres undefined) | % | 22.2
